tested on: COLO 205 colon; assay: NCI tumour cell line growth inhibition, 48 h
MEASUREMENT_TYPE: GI50

// GI50 lookup, key: CCN(Cc1ccc(F)c(F)c1)c1ccc(CO)c(Cl)c1 2.32 µM

For the compound shown here, CCN(CC)c1ccc(C(=C2C=CC(=[N+](CC)Cc3cccc(S(=O)(=O)O)c3)C=C2)c2ccc(N(CC)Cc3cccc(S(=O)(=O)O)c3)cc2)cc1 , give the reported GI50. 1.87 µM

Using the record for C=C1C(=O)O[C@H]2[C@H]1CC/C(COC(=O)NCc1ccccc1OC)=C\CC[C@@]1(C)O[C@@H]21 , report its GI50. 1.75 µM

GET /values?readout=GI50&item= Cc1ccc(/C=C2\CN(C(=O)OC(C)(C)C)C/C(=C\c3ccc(C)cc3)C2=O)cc1 0.597 µM

Values from PubChem BioAssay (NCI)
